STUDY SYSTEM: Histone deacetylase 9 (Homo sapiens, UniProt Q9UKV0)
Sequence (Q9UKV0 whole entry): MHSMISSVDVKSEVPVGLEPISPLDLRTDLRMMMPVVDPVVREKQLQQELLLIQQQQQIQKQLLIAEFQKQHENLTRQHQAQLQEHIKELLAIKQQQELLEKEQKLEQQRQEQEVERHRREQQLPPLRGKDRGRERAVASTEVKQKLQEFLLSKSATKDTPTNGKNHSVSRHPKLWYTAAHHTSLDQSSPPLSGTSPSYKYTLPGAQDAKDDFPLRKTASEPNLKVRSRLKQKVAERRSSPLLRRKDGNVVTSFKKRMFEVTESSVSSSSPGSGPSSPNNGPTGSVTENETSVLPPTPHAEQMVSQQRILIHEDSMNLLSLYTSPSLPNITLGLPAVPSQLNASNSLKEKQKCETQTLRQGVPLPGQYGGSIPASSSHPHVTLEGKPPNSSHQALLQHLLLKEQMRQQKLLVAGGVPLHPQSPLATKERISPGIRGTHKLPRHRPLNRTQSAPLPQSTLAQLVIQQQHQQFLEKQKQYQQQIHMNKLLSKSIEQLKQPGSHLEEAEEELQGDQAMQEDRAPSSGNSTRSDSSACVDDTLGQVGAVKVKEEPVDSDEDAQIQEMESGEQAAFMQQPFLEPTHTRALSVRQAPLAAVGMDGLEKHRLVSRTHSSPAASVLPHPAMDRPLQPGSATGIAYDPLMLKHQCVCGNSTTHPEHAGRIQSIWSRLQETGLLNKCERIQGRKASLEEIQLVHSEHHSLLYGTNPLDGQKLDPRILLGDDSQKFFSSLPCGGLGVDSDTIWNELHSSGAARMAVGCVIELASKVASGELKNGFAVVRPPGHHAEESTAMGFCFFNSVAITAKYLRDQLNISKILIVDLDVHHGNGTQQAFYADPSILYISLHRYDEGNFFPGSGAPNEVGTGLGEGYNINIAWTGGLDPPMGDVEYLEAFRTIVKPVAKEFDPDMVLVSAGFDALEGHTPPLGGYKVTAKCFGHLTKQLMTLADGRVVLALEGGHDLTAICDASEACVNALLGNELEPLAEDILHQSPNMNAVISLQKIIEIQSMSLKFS
pIC50: −log10 of the molar value.
RECORDED METRIC: pIC50

Query :: Quote pIC50 reported for `COc1ccc(N(C)c2nc(C)nc3ccccc23)cc1OCCCC(=O)NO` please.
Result :: < 5.00

====

Field: pIC50. Provide a value for each of the compounds that follow.
STUDY SYSTEM: Histone deacetylase 1 (Homo sapiens, UniProt Q13547)
Sequence (Q13547 whole entry): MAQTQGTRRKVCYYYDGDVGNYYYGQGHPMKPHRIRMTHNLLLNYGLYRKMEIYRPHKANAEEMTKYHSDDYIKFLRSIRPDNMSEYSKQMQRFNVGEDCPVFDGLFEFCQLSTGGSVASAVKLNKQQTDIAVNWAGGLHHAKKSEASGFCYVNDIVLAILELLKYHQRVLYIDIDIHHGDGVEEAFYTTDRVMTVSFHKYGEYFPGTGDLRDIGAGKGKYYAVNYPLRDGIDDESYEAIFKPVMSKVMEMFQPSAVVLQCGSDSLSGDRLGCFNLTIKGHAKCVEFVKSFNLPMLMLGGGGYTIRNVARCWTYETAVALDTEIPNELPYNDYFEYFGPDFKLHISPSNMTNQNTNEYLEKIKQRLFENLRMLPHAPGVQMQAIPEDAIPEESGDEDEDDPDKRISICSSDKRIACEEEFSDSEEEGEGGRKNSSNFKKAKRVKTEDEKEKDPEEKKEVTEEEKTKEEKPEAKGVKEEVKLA
Answers are plain numbers, as −log10 of the molar value.

>>> reported_result("Cc1nc2c(c(N(C)c3ccc(OCC(=O)NO)cc3)n1)CCC2")
6.58

Would you kindly look at the next entry?
Query :: Quote pIC50 reported for `CN(c1ccc(OCC(=O)NO)cc1)c1ncnc2ccccc12` please.
Result :: 6.62
